Sourced from patent US10960004B2

Reported AUC(0-t) by item:
Test: Pharmacokinetics of FTD and TPI in plasma of solid cancer patients given FTD/TPI combination drug, by renal function cohort
Format: in vivo, human
Conditions: human, plasma, po, 35 mg/m2, Day 1; Cohort 2: moderate renal impairment (CLcr 30 to 59 mL/min); 35 mg/m^2 per once as FTD, oral, twice a day; plasma; mean; read-out: AUC0-12

[
  {
    "molecule": "O=c1[nH]c(=O)n([C@H]2C[C@H](O)[C@@H](CO)O2)cc1C(F)(F)F [FTD, α,α,α-trifluorothymidine]",
    "unit.of.measurement": "ng·h/mL",
    "AUC(0-t)": 8140
  },
  {
    "molecule": "Cl.N=C1CCCN1Cc1[nH]c(=O)[nH]c(=O)c1Cl [TPI]",
    "unit.of.measurement": "ng·h/mL",
    "AUC(0-t)": 494
  }
]
